# SYSTEM: Recombinant HCV polymerase (Hepatitis C virus genotype 1b, UniProt P26663)
# Construct: 2.5 pmoles (0.15 μg) HCV polymerase protein
# Sequence (P26663 2420-3010): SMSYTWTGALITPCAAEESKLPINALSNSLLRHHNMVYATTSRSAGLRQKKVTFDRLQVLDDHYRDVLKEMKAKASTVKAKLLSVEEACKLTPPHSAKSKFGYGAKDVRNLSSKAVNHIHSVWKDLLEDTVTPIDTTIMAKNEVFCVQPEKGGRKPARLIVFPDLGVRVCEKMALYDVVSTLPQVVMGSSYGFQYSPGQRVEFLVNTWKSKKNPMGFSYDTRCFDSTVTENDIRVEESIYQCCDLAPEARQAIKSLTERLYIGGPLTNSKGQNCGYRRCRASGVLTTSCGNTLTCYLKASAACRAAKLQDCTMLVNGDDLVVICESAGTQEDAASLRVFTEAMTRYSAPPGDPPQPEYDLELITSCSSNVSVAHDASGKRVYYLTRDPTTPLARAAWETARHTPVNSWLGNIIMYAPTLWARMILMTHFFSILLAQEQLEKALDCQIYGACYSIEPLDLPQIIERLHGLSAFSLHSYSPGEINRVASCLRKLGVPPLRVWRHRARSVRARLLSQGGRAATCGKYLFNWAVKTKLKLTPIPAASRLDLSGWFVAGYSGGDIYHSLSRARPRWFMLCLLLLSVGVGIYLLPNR
# RUN_DESCRIPTION: HCV Polymerase Inhibition Assay
# Assay type: biochemical
# COND: primer/template-directed transcription, 30 minutes at 30° C.; category symbol
Recorded IC50 values for a group of compounds are listed next.

These recorded examples may help you get a feel for the data.
>  <COMPOUND>
CC1(c2ccc(CCC3(C4CCCC4)CC(=O)CC(=O)O3)cc2Cl)OCCO1 (centres unmarked)

>  <IC50>
< 1 µM

$$$$
>  <COMPOUND>
CN(C)S(=O)(=O)c1ccc(CCC2(C3CCCC3)CC(=O)CC(=O)O2)cc1 (centres unmarked)

>  <IC50>
10 to 50 µM

$$$$
>  <COMPOUND>
CCCCN(C1=C(O)C[C@@](CCc2cccc(O)c2)(C2CCCC2)OC1=O)c1ccccc1

>  <IC50>
1 to 10 µM

$$$$

Return value of IC50 for input Cc1cc(SC2=C(O)CC(CCc3ccc(O)cc3)(C3CCCCC3)OC2=O)c(C(C)(C)C)cc1OS(=O)(=O)c1ccccc1 (centres unmarked) , no commentary. 10 to 50 µM

Return value of IC50 for input CC(C)Oc1ccc(CCC2(C3CCCC3)CC(=O)CC(=O)O2)cc1Cl (centres unmarked) , no commentary. < 1 µM

Return value of IC50 for input CCSc1ccc(CCC2(C3CCCC3)CC(=O)CC(=O)O2)cc1 (centres unmarked) , no commentary. 1 to 10 µM

Return value of IC50 for input CS(=O)(=O)c1ccc(CCC2(C3CCCC3)CC(=O)CC(=O)O2)cc1 (centres unmarked) , no commentary. 1 to 10 µM

Return value of IC50 for input COc1ccc(CCC2(C3CCCC3)CC(O)=C(Sc3nnc(O)n3C)C(=O)O2)cc1 (centres unmarked) , no commentary. 1 to 10 µM

Return value of IC50 for input CCn1nnnc1SC1=C(O)CC(CCc2ccc(OC)cc2)(C2CCCC2)OC1=O (centres unmarked) , no commentary. < 1 µM

Return value of IC50 for input COc1ccc(CCC2(C3CCCC3)CC(=O)C(C(=O)Cc3ccccc3)C(=O)O2)c(OC)c1 (centres unmarked) , no commentary. 10 to 50 µM

Return value of IC50 for input COc1cc(OC)c(CCC2(C3CCCC3)CC(O)=C(Cl)C(=O)O2)cc1Cl (centres unmarked) , no commentary. < 1 µM
